For each record, write down the corresponding koff.
# target of assay: T1, recombinant human IL-27 (human, UniProt Q14213 21-229; Q8NEV9 29-243)
# T1 construct: Bought from R&D Systems (Cat. 2526-IL); also called hIL-27; rhIL-27
# T1 sequence 1: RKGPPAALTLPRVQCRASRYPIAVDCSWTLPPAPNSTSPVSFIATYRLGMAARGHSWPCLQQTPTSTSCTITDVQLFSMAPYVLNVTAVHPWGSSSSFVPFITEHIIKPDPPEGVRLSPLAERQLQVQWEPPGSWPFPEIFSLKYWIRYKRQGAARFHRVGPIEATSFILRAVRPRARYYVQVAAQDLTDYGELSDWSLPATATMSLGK
# T1 sequence 2: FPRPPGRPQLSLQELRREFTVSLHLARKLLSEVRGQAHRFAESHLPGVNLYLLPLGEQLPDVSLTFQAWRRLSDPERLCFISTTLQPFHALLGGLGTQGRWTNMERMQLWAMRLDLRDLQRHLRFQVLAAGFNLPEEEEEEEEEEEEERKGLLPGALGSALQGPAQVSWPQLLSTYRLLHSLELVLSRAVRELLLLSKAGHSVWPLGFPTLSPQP
# assay explanation: SPR (Biacore T200), hIL-27 on CM5 chip, single cycle, 1:1 model
One number for each entry, in s⁻¹.

Some solved cases for reference:
{"columns": ["binder", "unit symbol", "koff"],
 "data": [
  ["Ab7.22 (antibody, human IgG1, kappa, V domains shown, human IgG1/kappa) VH: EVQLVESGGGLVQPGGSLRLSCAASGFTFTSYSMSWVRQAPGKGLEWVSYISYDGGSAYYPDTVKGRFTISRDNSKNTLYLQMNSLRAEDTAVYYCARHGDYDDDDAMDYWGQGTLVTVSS VL: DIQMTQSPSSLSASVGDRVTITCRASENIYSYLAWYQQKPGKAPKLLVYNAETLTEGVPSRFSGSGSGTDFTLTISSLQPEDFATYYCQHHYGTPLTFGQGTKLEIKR", "s⁻¹", 0.0019],
  ["Ab7.12 (antibody, human IgG1, kappa, V domains shown, human IgG1/kappa) VH: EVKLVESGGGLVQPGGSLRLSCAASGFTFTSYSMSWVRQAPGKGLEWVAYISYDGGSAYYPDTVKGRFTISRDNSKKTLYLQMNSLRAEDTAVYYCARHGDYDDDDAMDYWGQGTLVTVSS VL: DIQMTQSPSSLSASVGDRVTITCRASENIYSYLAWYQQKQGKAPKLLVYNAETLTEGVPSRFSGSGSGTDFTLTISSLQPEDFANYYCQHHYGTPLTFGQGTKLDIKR", "s⁻¹", 0.0018]
]}

Recorded koff for Ab7.4 (antibody, human IgG1, kappa, V domains shown, human IgG1/kappa) VH: EVKLVESGGGLVQPGGSLRLSCAASGFTFTSYSMSWVRQAPGKGLEWVAYISYDGGSAYYPDTVKGRFTISRDNSKKTLYLQMSSLKSEDTAMYYCARHGDYDDDDAMDYWGQGTSVTVSS VL: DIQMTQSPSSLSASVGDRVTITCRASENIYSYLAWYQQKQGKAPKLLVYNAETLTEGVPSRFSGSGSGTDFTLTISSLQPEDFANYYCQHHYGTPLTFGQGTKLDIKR , please?
0.0018
